ASSAYED TARGET: recombinant human GR (Homo sapiens)
Sequence (P04150 whole entry): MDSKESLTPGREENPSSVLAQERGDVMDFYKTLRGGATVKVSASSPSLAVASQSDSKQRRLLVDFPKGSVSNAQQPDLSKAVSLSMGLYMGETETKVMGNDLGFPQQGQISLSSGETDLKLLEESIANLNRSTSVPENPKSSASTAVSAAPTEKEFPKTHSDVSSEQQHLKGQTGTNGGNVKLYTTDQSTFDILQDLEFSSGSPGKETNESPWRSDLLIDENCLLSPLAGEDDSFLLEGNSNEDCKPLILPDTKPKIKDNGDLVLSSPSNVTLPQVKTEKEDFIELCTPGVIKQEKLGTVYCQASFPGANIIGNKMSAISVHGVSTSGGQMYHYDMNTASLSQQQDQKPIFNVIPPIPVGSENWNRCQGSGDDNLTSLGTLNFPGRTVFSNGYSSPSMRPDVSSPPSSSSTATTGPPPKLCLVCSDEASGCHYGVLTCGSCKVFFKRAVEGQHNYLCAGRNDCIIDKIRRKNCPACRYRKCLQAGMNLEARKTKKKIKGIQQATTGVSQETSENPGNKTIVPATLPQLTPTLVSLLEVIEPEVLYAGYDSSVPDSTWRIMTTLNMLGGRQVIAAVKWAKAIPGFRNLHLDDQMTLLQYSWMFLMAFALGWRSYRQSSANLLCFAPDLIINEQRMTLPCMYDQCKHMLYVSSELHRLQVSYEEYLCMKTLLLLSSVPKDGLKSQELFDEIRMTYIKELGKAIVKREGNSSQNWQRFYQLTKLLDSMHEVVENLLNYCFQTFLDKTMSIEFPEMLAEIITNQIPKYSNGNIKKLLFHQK
TEST PROTOCOL: Human Glucocorticoid Receptor (GR) fluorescence polarization assay
PARTICULARS: GS Red tracer, 2 hours at room temperature
READOUT KIND: IC50 (nM)
Your answer is read as nM, so omit the unit and give the number.

Let me check: CC1=CC(C)(C)N(Cc2ccc(Cl)cc2)c2ccccc21 [CAS120109-44-6] , system recombinant human GR (Homo sapiens), measured IC50 is 240
